- ASSAY METHOD TEXT: Kinetic inertness: acid-assisted dechelation in excess HCl
- Format: physicochemical
- RUN PARAMETERS: dechelation half-life; 0.5 mM chelate in 0.1 M HCl, 80 °C; HPLC-UV after 1 h, 1 day, 1 week, 1 month; exponential decay fit; ± error of the fit
PROPERTY: t½ (0.1 M HCl, 80 °C)

Example entries and their recorded answers appear below.
COMPOUND | PROPERTY | REPORTED RESULT
O=C([O-])CN1CCN2CCN(CC(=O)[O-])CCN(CC1)Cc1cccc(n1)-c1cnnn1Cc1cc(-c3ccccc3)cc(n1)C2.[Ho+3] | t½ (0.1 M HCl, 80 °C) | too stable
O=C([O-])CN1CCN2CCN(CC(=O)[O-])CCN(CC1)Cc1cccc(n1)-c1cn(nn1)Cc1cc(-c3ccccc3)cc(n1)C2.[Gd+3] [1,4-cz-[Gd(PhL1)]] | t½ (0.1 M HCl, 80 °C) | too unstable
O=C([O-])CN1CCN2CCN(CC(=O)[O-])CCN(CC1)Cc1cccc(n1)-c1cnnn1Cc1cc(-c3ccccc3)cc(n1)C2.[Lu+3] | t½ (0.1 M HCl, 80 °C) | too stable
O=C([O-])CN1CCN2CCN(CC(=O)[O-])CCN(CC1)Cc1cccc(n1)-c1cnnn1Cc1cc(-c3ccccc3)cc(n1)C2.[Er+3] | t½ (0.1 M HCl, 80 °C) | too stable

Form field: reported t½ (0.1 M HCl, 80 °C) of `O=C([O-])CN1CCN2CCN(CC(=O)[O-])CCN(CC1)Cc1cccc(n1)-c1cnnn1Cc1cc(-c3ccccc3)cc(n1)C2.[Yb+3]` too stable

So what does the record say about t½ (0.1 M HCl, 80 °C) for `O=C([O-])CN1CCN2CCN(CC(=O)[O-])CCN(CC1)Cc1cccc(n1)-c1cnnn1Cc1cc(-c3ccccc3)cc(n1)C2.[Ce+3]` ? too unstable

Entry `O=C([O-])CN1CCN2CCN(CC(=O)[O-])CCN(CC1)Cc1cccc(n1)-c1cnnn1Cc1cc(-c3ccccc3)cc(n1)C2.[La+3]` has what t½ (0.1 M HCl, 80 °C)? too unstable

t½ (0.1 M HCl, 80 °C) lookup needed for `O=C([O-])CN1CCN2CCN(CC(=O)[O-])CCN(CC1)Cc1cccc(n1)-c1cnnn1Cc1cc(-c3ccccc3)cc(n1)C2.[Tm+3]` , thanks. too stable

Entry `O=C([O-])CN1CCN2CCN(CC(=O)[O-])CCN(CC1)Cc1cccc(n1)-c1cnnn1Cc1cc(-c3ccccc3)cc(n1)C2.[Ca+2]` has what t½ (0.1 M HCl, 80 °C)? too unstable

Please give the measured t½ (0.1 M HCl, 80 °C) for this compound: O=C([O-])CN1CCN2CCN(CC(=O)[O-])CCN(CC1)Cc1cccc(n1)-c1cn(nn1)Cc1cc(-c3ccccc3)cc(n1)C2.[Lu+3] [1,4-cz-[Lu(PhL1)]] too unstable

###

- ASSAY METHOD TEXT: Kinetic inertness: acid-assisted dechelation in excess HCl
- Assay type: physicochemical
- RUN PARAMETERS: Figure 2A; 0.1 M HCl, 25 °C
Criterion: half-life strictly less than 50 h. Met: Satisfied. Not met: Not satisfied.

Given `O=C([O-])CN1CCN2CCN(CC(=O)[O-])CCN(CC1)Cc1cccc(n1)-c1cnnn1Cc1cc(-c3ccccc3)cc(n1)C2.[La+3]` , is recorded half-life strictly lower than 50 h? Satisfied

half-life strictly < 50 h for this compound? `O=C([O-])CN1CCN2CCN(CC(=O)[O-])CCN(CC1)Cc1cccc(n1)-c1cnnn1Cc1cc(-c3ccccc3)cc(n1)C2.[Nd+3]` Not satisfied

Strictly below 50 h in half-life? `O=C([O-])CN1CCN2CCN(CC(=O)[O-])CCN(CC1)Cc1cccc(n1)-c1cnnn1Cc1cc(-c3ccccc3)cc(n1)C2.[Ce+3]` Satisfied

Does `O=C([O-])CN1CCN2CCN(CC(=O)[O-])CCN(CC1)Cc1cccc(n1)-c1cnnn1Cc1cc(-c3ccccc3)cc(n1)C2.[Pr+3]` have half-life strictly under 50 h? Not satisfied

For `O=C([O-])CN1CCN2CCN(CC(=O)[O-])CCN(CC1)Cc1cccc(n1)-c1cnnn1Cc1cc(-c3ccccc3)cc(n1)C2.[Sm+3]` , is the recorded half-life below the cut-off of 50 h? Not satisfied

###

- ASSAY METHOD TEXT: Kinetic inertness: acid-assisted dechelation in excess HCl
- Assay type: physicochemical
- RUN PARAMETERS: Figure 2A; 1.0 M HCl, 80 °C
PROPERTY: half-life, h

Example compounds with recorded half-life, h:
COMPOUND | REPORTED RESULT
O=C([O-])CN1CCN2CCN(CC(=O)[O-])CCN(CC1)Cc1cccc(n1)-c1cnnn1Cc1cc(-c3ccccc3)cc(n1)C2.[Ce+3] [Ph{Ce}] | too unstable
O=C([O-])CN1CCN2CCN(CC(=O)[O-])CCN(CC1)Cc1cccc(n1)-c1cnnn1Cc1cc(-c3ccccc3)cc(n1)C2.[Tm+3] [Ph{Tm}] | too stable
O=C([O-])CN1CCN2CCN(CC(=O)[O-])CCN(CC1)Cc1cccc(n1)-c1cnnn1Cc1cc(-c3ccccc3)cc(n1)C2.[Pr+3] [Ph{Pr}] | too unstable
O=C([O-])CN1CCN2CCN(CC(=O)[O-])CCN(CC1)Cc1cccc(n1)-c1cnnn1Cc1cc(-c3ccccc3)cc(n1)C2.[La+3] [Ph{La}] | too unstable
O=C([O-])CN1CCN2CCN(CC(=O)[O-])CCN(CC1)Cc1cccc(n1)-c1cnnn1Cc1cc(-c3ccccc3)cc(n1)C2.[Yb+3] [Ph{Yb}] | too stable
O=C([O-])CN1CCN2CCN(CC(=O)[O-])CCN(CC1)Cc1cccc(n1)-c1cnnn1Cc1cc(-c3ccccc3)cc(n1)C2.[Lu+3] [Ph{Lu}] | too stable

# input compound: O=C([O-])CN1CCN2CCN(CC(=O)[O-])CCN(CC1)Cc1cccc(n1)-c1cnnn1Cc1cc(-c3ccccc3)cc(n1)C2.[Nd+3] [Ph{Nd}] ; wanted: its half-life, h too unstable

###

- ASSAY METHOD TEXT: Kinetic inertness: acid-assisted dechelation in excess HCl
- Assay type: physicochemical
- RUN PARAMETERS: dechelation half-life; 0.5 mM chelate in 6.0 M HCl, 80 °C; HPLC-UV after 1 h, 1 day, 1 week, 1 month; fit y = exp(−x/t), t½ = ln(2) × t; ± error of the fit
PROPERTY: t½ (6.0 M HCl, 80 °C)

Below, 10 compounds whose answers are already recorded.
COMPOUND | t½ (6.0 M HCl, 80 °C)
O=C([O-])CN1CCN2CCN(CC(=O)[O-])CCN(CC1)Cc1cccc(n1)-c1cn(nn1)Cc1cc(-c3ccccc3)cc(n1)C2.[Gd+3] [1,4-cz-[Gd(PhL1)]] | too unstable
O=C([O-])CN1CCN2CCN(CC(=O)[O-])CCN(CC1)Cc1cccc(n1)-c1cnnn1Cc1cc(-c3ccccc3)cc(n1)C2.[La+3] | too unstable
O=C([O-])CN1CCN(CC(=O)[O-])CCN(CC(=O)[O-])C(Cc2ccc([N+](=O)[O-])cc2)CN(CC(=O)[O-])CC1.[La+3] (stereo not drawn) [[La(NO2BnDOTA)], reference compound] | too unstable
O=C([O-])CN1CCN2CCN(CC(=O)[O-])CCN(CC1)Cc1cccc(n1)-c1cnnn1Cc1cc(-c3ccccc3)cc(n1)C2.[Nd+3] | too unstable
O=C([O-])CN1CCN2CCN(CC(=O)[O-])CCN(CC1)Cc1cccc(n1)-c1cnnn1Cc1cc(-c3ccccc3)cc(n1)C2.[Pr+3] | too unstable
O=C([O-])CN1CCN(CC(=O)[O-])CCN(CC(=O)[O-])C(Cc2ccc([N+](=O)[O-])cc2)CN(CC(=O)[O-])CC1.[Lu+3] (stereo not drawn) [[Lu(NO2BnDOTA)], reference compound] | too unstable
O=C([O-])CN1CCN2CCN(CC(=O)[O-])CCN(CC1)Cc1cccc(n1)-c1cnnn1Cc1cc(-c3ccccc3)cc(n1)C2.[Ca+2] | too unstable
O=C([O-])CN1CCN2CCN(CC(=O)[O-])CCN(CC1)Cc1cccc(n1)-c1cnnn1Cc1cc(-c3ccccc3)cc(n1)C2.[Sm+3] | too unstable
O=C([O-])CN1CCN2CCN(CC(=O)[O-])CCN(CC1)Cc1cccc(n1)-c1cnnn1Cc1cc(-c3ccccc3)cc(n1)C2.[Eu+3] | too unstable
O=C([O-])CN1CCN2CCN(CC(=O)[O-])CCN(CC1)Cc1cccc(n1)-c1cnnn1Cc1cc(-c3ccccc3)cc(n1)C2.[Ce+3] | too unstable

Name the recorded t½ (6.0 M HCl, 80 °C) for O=C([O-])CN1CCN(CC(=O)[O-])CCN(CC(=O)[O-])C(Cc2ccc([N+](=O)[O-])cc2)CN(CC(=O)[O-])CC1.[Gd+3] (stereo not drawn) [[Gd(NO2BnDOTA)], reference compound] . too unstable

Entry O=C([O-])CN1CCN2CCN(CC(=O)[O-])CCN(CC1)Cc1cccc(n1)-c1cn(nn1)Cc1cc(-c3ccccc3)cc(n1)C2.[Lu+3] [1,4-cz-[Lu(PhL1)]] has what t½ (6.0 M HCl, 80 °C)? too unstable

Source of measurements: paper PMC11561307
